Test system: UniProt I0DFK5
Sequence (I0DFK5 1-1119): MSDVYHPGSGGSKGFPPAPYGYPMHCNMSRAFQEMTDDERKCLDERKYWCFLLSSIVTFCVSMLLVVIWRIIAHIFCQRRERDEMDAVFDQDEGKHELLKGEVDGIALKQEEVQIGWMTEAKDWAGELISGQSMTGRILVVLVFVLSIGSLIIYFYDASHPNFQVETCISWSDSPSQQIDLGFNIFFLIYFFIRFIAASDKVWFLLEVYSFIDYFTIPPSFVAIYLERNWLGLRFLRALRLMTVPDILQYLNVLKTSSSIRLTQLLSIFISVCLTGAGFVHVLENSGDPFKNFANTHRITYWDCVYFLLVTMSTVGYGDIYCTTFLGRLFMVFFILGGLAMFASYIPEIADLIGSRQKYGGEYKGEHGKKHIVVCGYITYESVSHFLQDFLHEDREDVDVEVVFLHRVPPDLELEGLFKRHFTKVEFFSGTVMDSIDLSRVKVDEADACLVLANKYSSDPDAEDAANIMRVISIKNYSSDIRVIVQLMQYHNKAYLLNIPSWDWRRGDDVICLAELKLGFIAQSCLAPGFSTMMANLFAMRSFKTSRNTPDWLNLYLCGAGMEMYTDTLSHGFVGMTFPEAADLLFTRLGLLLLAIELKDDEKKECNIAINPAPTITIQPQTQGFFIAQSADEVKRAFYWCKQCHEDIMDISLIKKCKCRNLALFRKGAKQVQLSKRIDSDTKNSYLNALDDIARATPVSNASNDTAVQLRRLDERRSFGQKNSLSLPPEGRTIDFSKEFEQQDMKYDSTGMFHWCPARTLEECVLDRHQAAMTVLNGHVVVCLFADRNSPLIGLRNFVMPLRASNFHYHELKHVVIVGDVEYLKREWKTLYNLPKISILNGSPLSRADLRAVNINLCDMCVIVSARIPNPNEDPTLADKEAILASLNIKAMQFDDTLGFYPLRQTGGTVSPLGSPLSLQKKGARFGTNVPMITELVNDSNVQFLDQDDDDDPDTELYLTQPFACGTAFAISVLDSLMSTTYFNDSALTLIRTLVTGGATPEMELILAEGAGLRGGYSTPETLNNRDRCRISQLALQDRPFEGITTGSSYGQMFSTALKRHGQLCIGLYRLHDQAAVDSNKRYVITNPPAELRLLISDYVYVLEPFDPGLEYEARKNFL
Test method notes: In Vitro Assay 2: D. immitis Slo-1, action at a recombinant D. immitis cell line (membrane potential, FLIPR)
Type: cell-based
Value type: EC50

Some compounds with recorded EC50:
CN(C)c1c(NC(=O)C2CCc3ccccc32)cnc2c(-c3cc(F)cc(F)c3F)c(F)ccc12 (racemic)    100 to 1000 nM
O=C(Nc1cnc2c(-c3cc(Cl)cc(Cl)c3)cccc2c1C1CCOCC1)C1CCc2ccccc21 (racemic)    100 to 1000 nM
CCc1c(NC(=O)C2CCOc3ccccc32)cnc2c(-c3cc(F)cc(F)c3F)c(F)ccc12 (racemic)    10 to 100 nM

Prompt line: Item CN(C)c1c(NC(=O)[C@@H]2CCc3ccccc32)cnc2c(-c3cc(F)cc(F)c3F)cccc12 has what recorded EC50?
Response line: 100 to 1000 nM

Prompt line: Item O=C(Nc1cnc2c(-c3cc(F)cc(F)c3F)cccc2c1C1CCOCC1)C1CCOc2ccccc21 (racemic) has what recorded EC50?
Response line: 100 to 1000 nM

Prompt line: Item O=C(Nc1cnc2c(-c3cc(F)cc(F)c3F)cccc2c1N1CCOCC1)C1CCOc2ccccc21 (racemic) has what recorded EC50?
Response line: 10 to 100 nM
